I'd appreciate it if you could supply cell viability values for the items below.
# Test system: HepG2
# Assay Overview: cell viability relative to DMSO; higher = less toxic
# Assay Setup: 72 h; 10000 nM
One number for each entry, in %.

Briefly, cell viability measured for CCOC(=O)c1ncc2[nH]c3cccc(OC(C)C)c3c2c1C : 109

Briefly, cell viability measured for CN(CCc1ccc(Cl)c(Cl)c1)CCN1CCCC1 [BD-1008] : 106

Briefly, cell viability measured for CN1Cc2c(C(=O)OC(C)(C)C)ncn2-c2ccsc2C1=O [Ro-19-4605] : 108

Briefly, cell viability measured for O=C(O)[C@H]1CCCN(CCC=C(c2ccccc2)c2ccccc2)C1 (racemic) : 99.2

Briefly, cell viability measured for CO/N=C(\C(=O)N[C@@H]1C(=O)N2C(C(=O)O)=C(COC(N)=O)CS[C@H]12)c1ccco1 [CEFUROXIME SODIUM] : 103

Value sought for every listed molecule: cell viability.
1. S=C(NC1CCCCC1)N1CCC(c2cnc[nH]2)CC1 [thioperamide]
2. CCCCCS(=O)(=O)CCCCCCCCCCn1c(-c2ccc(O)cc2)c(C)c2cc(O)ccc21
3. CCSc1ccc2c(c1)N(CCCN1CCN(C)CC1)c1ccccc1S2 [thiethylperazine]
4. CCOC(=O)c1c(O)nc2cccc3c2c1-c1ccccc1C3=O [NQDI-1]

[92.7, 33.8, 55.6, 57.2]

---

I'd appreciate it if you could supply cell viability values for the items below.
# System: Vero E6
# Assay Overview: cell viability relative to DMSO; higher = less toxic
# Assay Setup: 72 h; 100 nM
Record the result as number plus unit.

Briefly, cell viability measured for O=S(=O)(Cc1ccccc1)Nc1ccc(-c2ccc3c(cnn3-c3ccc(F)cc3)c2)c(C(F)(F)F)c1 [GSK9027] : 91.1%

Value sought for every listed compound: cell viability.
1. Oc1cc(O)cc(O)c1 [phloroglucin]
2. CN1Cc2c(C(=O)OC(C)(C)C)ncn2-c2ccsc2C1=O [Ro-19-4605]
3. COc1ccccc1NC(=O)OCC1CCN(C(=O)OC(C)(C)C)CC1
4. N[C@@H](Cc1ccc(O)cc1)C(=O)NCC(=O)NCC(=O)O [IMREG-1]

["98.6%", "103%", "99.8%", "92.6%"]

Briefly, cell viability measured for CN(CCc1ccc(Cl)c(Cl)c1)CCN1CCCC1 [BD-1008] : 94.2%

---

# Tested on: U2OS
# Assay Overview: cell viability relative to DMSO; higher = less toxic
# Assay Setup: 72 h; 1000 nM
I'd appreciate it if you could supply cell viability values for the items below.
Answers are plain numbers, in %.

Worked examples follow.
Briefly, cell viability measured for CC(C)NCCCn1c(Sc2cc3c(cc2I)OCO3)nc2c(N)ncnc21 : 37.8

Briefly, cell viability measured for COc1ccc(CNC(=O)Nc2ncc([N+](=O)[O-])s2)cc1 : 102

Briefly, cell viability measured for CC1=CC(=O)c2ccccc2C1=O : 99.7

Briefly, cell viability measured for O=c1ccc2cc3ccoc3cc2o1 : 102

Value sought for every listed compound: cell viability.
1. CC(C)C[C@@H](C(=O)N[C@H](C(=O)OC1CCCC1)c1ccccc1)[C@H](O)C(=O)NO
2. CC(=O)NCCC(=O)N[C@@H](Cc1c[nH]cn1)C(=O)O
3. N[C@@H]1CCN(c2cccnc2)C1
4. CCc1nc2ccc(Cl)cn2c1C(=O)NCc1ccc(N2CCC(c3ccc(OC(F)(F)F)cc3)CC2)cc1

98.3
97.5
102
97.4

Value sought for every listed compound: cell viability.
1. O=C(O)[C@H]1CCCN(CCC=C(c2ccccc2)c2ccccc2)C1 (racemic)
2. CN1CCc2cc(Cl)c(O)cc2[C@@H](c2ccccc2)C1
3. O=C(O)C1CN(Cc2ccc(-c3nc4cc(Cc5ccccc5F)ccc4s3)c(F)c2)C1
4. C=CCc1cc(OC)c(O)c(C(=O)NCCO)c1 [alibendol]
5. O=S(=O)(c1cccc2c(Cl)cccc12)N1CCCNCC1
6. CC(C)C(N)C(=O)O (stereo in doubt)

1: 102; 2: 102; 3: 102; 4: 104; 5: 102; 6: 93.5

Value sought for every listed compound: cell viability.
1. CCCN(CCC)[C@@H]1CCc2c(OC)cccc2[C@@H]1C [UH-232-(+)]
2. CCSc1ccc2c(c1)N(CCCN1CCN(C)CC1)c1ccccc1S2
3. N[C@@H](Cc1ccc(O)cc1)C(=O)NCC(=O)NCC(=O)O
4. CN1CCN(C(=O)O[C@H]2c3nccnc3C(=O)N2c2ccc(Cl)cn2)CC1
5. CC(C)=CCC[C@](C)(O)[C@@H]1CC=C(C)CC1
6. C=C[C@]1(C)CC[C@@H](C(=C)C)C[C@H]1C(=C)C
7. OCCN(CCO)c1nc(N2CCCCC2)c2nc(N(CCO)CCO)nc(N3CCCCC3)c2n1

1. 101
2. 106
3. 93.5
4. 98.3
5. 104
6. 96.4
7. 102

Value sought for every listed compound: cell viability.
1. C[C@@H]1COCCN1c1cc(=O)n2c(n1)N(Cc1cncc(Cl)c1)[C@H](C(F)(F)F)CC2
2. C[C@@](Cc1ccc(O)c(O)c1)(NN)C(=O)O
3. CCC(=O)N1CCN(c2ccc(-n3c(=O)ccc4cnc5ccc(-c6cnc7ccccc7c6)cc5c43)cc2C(F)(F)F)CC1
4. NC(=O)c1ccc(-c2nc(-c3ccc4c(c3)OCCO4)c(-c3ccccn3)[nH]2)cc1

1: 96.3; 2: 100; 3: 42.2; 4: 99.5

Value sought for every listed compound: cell viability.
1. O=C(O)[C@H](O)[C@@H](O)[C@H](O[C@@H]1O[C@H](CO)[C@H](O)[C@H](O)[C@H]1O)[C@H](O)CO
2. Cc1nnsc1C(=O)Nc1ccc(-n2nc(C(F)(F)F)cc2C(F)(F)F)cc1
3. C=CC(=O)Nc1cc2c(Nc3ccc(F)c(Cl)c3)ncnc2cc1OCCCN1CCOCC1
4. CNc1cc(OC)c(C(=O)NC2CCN(Cc3ccccc3)C2C)cc1Cl (centres undefined) [nemonapride]
5. CC[C@@H]1C(=O)N(C)c2cnc(Nc3ccc(C(=O)N[C@H]4CC[C@H](N5CCN(CC6CC6)CC5)CC4)cc3OC)nc2N1C(C)C

102
100
96.1
98.6
29.1

Value sought for every listed compound: cell viability.
1. CCOc1ccc(C[C@H]2NC(=O)CCSSC[C@@H](C(=O)N3CCC[C@H]3C(=O)N[C@@H](CCCN)C(=O)NCC(N)=O)NC(=O)[C@H](CC(N)=O)NC(=O)[C@H]([C@@H](C)O)NC(=O)[C@H]([C@@H](C)CC)NC2=O)cc1
2. O=C(O)[C@H]1O[C@@H](Oc2cc3oc(-c4ccccc4)cc(=O)c3c(O)c2O)[C@H](O)[C@@H](O)[C@@H]1O
3. COc1ccc2c(Oc3ccc(NC(=O)c4c(C)n(CC(C)(C)O)n(-c5ccccc5)c4=O)nc3)ccnc2c1
4. CCOc1nc2cccc(C(=O)OC(C)OC(=O)OC3CCCCC3)c2n1Cc1ccc(-c2ccccc2-c2nn[nH]n2)cc1 (centres undefined)

1: 100; 2: 101; 3: 103; 4: 90.9
